B1: H2-Kb / B3 (parent)
chain 1: GQQVKQSSPSLTVQEGGISILNCDYENDMFDYFAWYKKYPDNSPTLLISVRSNVDKREDGRLTVFLNKSGKHFSLHITASQPEDTAVYLCAAGNTGYQNFYFGKGTSLTVIP
chain 2: DSGVVQSPRHIIKEKGGRSVLTCIPISGHSNVVWYQQTLGKELKFLIQHYEKVERDKGFLPSRFSVQQFDDYHSEMNMSALELEDSAMYFCASSSLQGARNQAPLFGEGTRLSVL
chain 3: not shown
chain 4: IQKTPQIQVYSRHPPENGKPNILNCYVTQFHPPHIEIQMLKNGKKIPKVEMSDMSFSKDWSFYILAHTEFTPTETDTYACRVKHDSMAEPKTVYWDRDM
chain 5: SIINFEKL

- Variants of: B1
- PROCEDURE_TEXT: % of reporter cells activated (NFAT-GFP), raw; note: test concentration or dose not given here
- RUN_CONDITIONS: with B3; scale: % of reporter cells activated
Cut-off 0.4 on ratio to parent: below means true (1), at or above means false (0).

>>> discrete_label("chain 5 F5G")
"true (1)"
>>> discrete_label("chain 5 K7C")
"true (1)"
>>> discrete_label("chain 5 L8S")
"true (1)"
>>> discrete_label("chain 5 F5K")
"true (1)"
>>> discrete_label("chain 5 K7D")
"true (1)"
>>> discrete_label("chain 5 N4T")
"true (1)"
>>> discrete_label("chain 5 I2L")
"false (0)"
>>> discrete_label("chain 5 I3T")
"false (0)"
>>> discrete_label("chain 5 S1D")
"true (1)"
>>> discrete_label("chain 5 I3N")
"true (1)"
>>> discrete_label("chain 5 K7P")
"true (1)"
>>> discrete_label("chain 5 S1Y")
"false (0)"
>>> discrete_label("chain 5 L8T")
"false (0)"
>>> discrete_label("chain 5 S1W")
"true (1)"
>>> discrete_label("chain 5 K7F")
"true (1)"
>>> discrete_label("chain 5 I2F")
"false (0)"
>>> discrete_label("chain 5 E6C")
"false (0)"
>>> discrete_label("chain 5 N4V")
"true (1)"
>>> discrete_label("chain 5 E6I")
"false (0)"
>>> discrete_label("chain 5 S1H")
"true (1)"
>>> discrete_label("chain 5 L8Q")
"true (1)"
>>> discrete_label("chain 5 F5I")
"false (0)"
>>> discrete_label("chain 5 S1N")
"true (1)"
>>> discrete_label("chain 5 I2C")
"false (0)"
>>> discrete_label("chain 5 K7H")
"false (0)"
>>> discrete_label("chain 5 K7I")
"true (1)"
>>> discrete_label("chain 5 N4F")
"true (1)"
>>> discrete_label("chain 5 L8R")
"false (0)"
>>> discrete_label("chain 5 K7V")
"true (1)"
